- ASSAY TARGET: HLA-B*39:01
- ASSAY TEXT: IEDB peptide-MHC binding, purified MHC/competitive/fluorescence; filed as Kd, often an IC50 or EC50 that approximates it; bounds were set here for any values at or beyond the usual limits of such assays
- CONDITION SET: source organism: Bacillus anthracis str. A2012
ATTRIBUTE MEASURED: Kd (nM)

BIOPOLYMER SEQUENCE	READOUT VALUE
FHMSKPSDL	7.7

###

- ASSAY TARGET: HLA-B*15:01
- ASSAY TEXT: IEDB peptide-MHC binding, purified MHC/competitive/fluorescence; filed as Kd, often an IC50 or EC50 that approximates it; bounds were set here for any values at or beyond the usual limits of such assays
- CONDITION SET: source organism: Coxiella burnetii RSA 331
ATTRIBUTE MEASURED: Kd

BIOPOLYMER SEQUENCE	ATTRIBUTE MEASURED	READOUT VALUE
HMNKLPLAK	Kd	≥ 20 µM
